experiment: Permeability of the compound at 25 ug/ml after 18 hrs by PAMPA-BBB assay
Type: ADME
test conditions: read-out: permeability
measure: Papp at 18 h, 25 ug/ml

molecule="O=C1C(Cc2ccccc2)N(S(=O)(=O)c2cccc(Br)c2)C(=O)C(Cc2ccccc2)N1S(=O)(=O)c1cccc(Br)c1 (configuration not stated)" result="8.06 ×10⁻⁶ cm/s"
molecule=CCCCS(=O)(=O)N1CC(=O)N(S(=O)(=O)CCCC)CC1=O result="1.06 ×10⁻⁶ cm/s"
molecule=Cc1nnc2n1-c1ccc(Cl)cc1C(c1ccccc1)=NC2 result="4.6 to 5.4 ×10⁻⁶ cm/s"
molecule=NCCc1ccc(O)c(O)c1 result="0.17 to 0.2 ×10⁻⁶ cm/s"
molecule=COc1ccc(S(=O)(=O)N2CC(=O)N(S(=O)(=O)c3ccc(OC)cc3)CC2=O)cc1 result="6.46 ×10⁻⁶ cm/s"
molecule=O=C1CN(S(=O)(=O)c2cccc(Cl)c2)C(=O)CN1S(=O)(=O)c1cccc(Cl)c1 result="8.37 ×10⁻⁶ cm/s"
molecule="O=C1C(Cc2ccccc2)N(S(=O)(=O)c2ccc(Br)cc2)C(=O)C(Cc2ccccc2)N1S(=O)(=O)c1ccc(Br)cc1 (configuration not stated)" result="7.29 ×10⁻⁶ cm/s"
molecule="O=C1C(Cc2ccccc2)N(S(=O)(=O)c2ccc(O)cc2)C(=O)C(Cc2ccccc2)N1S(=O)(=O)c1ccc(O)cc1 (configuration not stated)" result="5.68 ×10⁻⁶ cm/s"
molecule="O=C1C(c2ccccc2)N(S(=O)(=O)c2ccc(O)cc2)C(=O)C(c2ccccc2)N1S(=O)(=O)c1ccc(O)cc1 (configuration not stated)" result="6.84 ×10⁻⁶ cm/s"
molecule=Cc1ccc(S(=O)(=O)N2CC(=O)N(S(=O)(=O)c3ccc(C)cc3)CC2=O)cc1 result="10.4 ×10⁻⁶ cm/s"
molecule=CN(C)CCCN1c2ccccc2Sc2ccc(Cl)cc21 result="5.9 to 6.5 ×10⁻⁶ cm/s"
molecule="O=C1C(c2ccccc2)N(S(=O)(=O)c2ccc(Cl)cc2)C(=O)C(c2ccccc2)N1S(=O)(=O)c1ccc(Cl)cc1 (configuration not stated)" result="7.38 ×10⁻⁶ cm/s"
